test: COS7 lysate on small-molecule microarray, probe aHis, 635 nm (AID 1123); settings: COS7 cell lysate, fluorescence, higher = more signal;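 further: z-score combines 667nm fluorescence intensity with signal-to-noise per printed compound spot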
Rule: composite z-score of 2 or more gives Condition met; anything lower gives Condition not met.

| COMPOUND | CLASSIFICATION |
| --- | --- |
| CC(C)OC(=O)C=C1C[C@@H](c2ccc(C(F)(F)F)cc2)O[C@@H](c2ccc(C(F)(F)F)cc2)O1 | Condition met |
| COC(=O)CCCCCCC(=O)Nc1ccc(NC(=O)CCCC[P+](c2ccccc2)(c2ccccc2)c2ccccc2)cc1 | Condition not met |
| COCCOC(=O)N1C(=O)[C@@]2(c3cc(C#CCC(C(=O)OC)C(=O)OC)ccc31)[C@H](C(=O)N1CCc3cc(OC)c(OC)cc3C1)[C@H]1C(=O)O[C@H](c3ccccc3)[C@H](c3ccccc3)N1[C@@H]2c1ccc(OCCO)cc1 | Condition not met |
| COc1cc(OC)c(C(O)C2C=CC3C(=O)N(C)C(=O)C3N2NC(=O)OC(C)(C)C)cc1Br (stereo not drawn) | Condition met |
| CC(CO)N1C(=O)[C@@H]2[C@H]3C(=O)OCC=C[C@H]3OC23C=CCN(C(C)(C)C)C(=O)[C@@H]13 (stereo partly drawn) | Condition not met |
| COc1ccc(CCNC(=O)[C@@]2(Sc3ccc(C)cc3)CC(=O)N(C3Cc4ccccc4C3)[C@@H]2c2ccc(CO)cc2)cc1 | Condition not met |
| COc1ccc(C(O)C2C=CC3C(=O)N(c4ccccc4)C(=O)C3N2Nc2ccc([N+](=O)[O-])cc2)cc1 (stereo not drawn) | Condition met |

====

experiment: cell viability in Huh7 cells, primary screen, cytotoxicity control for HCV replication inhibitor project, CellTiter-Glo luminescence, basal, 48 h (AID 1143); details: Huh7 HCV replicon, higher = more signal, called active from +8 up or from −8 down;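 further: Huh7 hepatoma cells carrying a hepatitis C replication reporter with no stimulus; test concentration not given here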

| COMPOUND | z-score |
| --- | --- |
| [N-]=[N+]=Nc1ccccc1C[C@]1(C(=O)N2CCOCC2)N=C(c2ccc(OCCCO)cc2)O[C@H]1c1ccccc1 | -3.57 |
| CCOC(=O)C1CCCCN1 (configuration not stated) | 0.319 |
| COC(=O)[C@H](Cc1ccccc1)N1CC(/C=C/C2CC2)=C[C@H]1[C@H](O)Cc1ccccc1 | -2.83 |
| COCCCNC(=O)[C@@]1(Cc2ccccc2N=[N+]=[N-])N=C(c2ccc(OCCCO)cc2)O[C@H]1c1ccccc1 | -4.36 |
| C=CCNC(=O)[C@@H]1[C@H]2C(=O)O[C@H](c3ccccc3)[C@H](c3ccccc3)N2[C@H](c2ccc(O)cc2)[C@@]12C(=O)N(C(=O)OCCOC)c1ccc(C#CC3(O)CCCCCC3)cc12 | -1.16 |
| C[C@H]1NC(=O)[C@@]23C(=O)N[C@@H](Cc4ccccc4)C2[C@H](C)[C@@]2(C)O[C@H]2C3/C=C/C/C=C\CNC(=O)[C@H](Cc2ccccc2)NC1=O (some centres not stated) | -0.945 |
| COCCOC(=O)N1C(=O)[C@@]2(c3cc(C#CC4=CCCCC4)ccc31)[C@H](c1ccc(OCCO)cc1)N1[C@H](c3ccccc3)[C@H](c3ccccc3)OC(=O)[C@H]1[C@@H]2C(=O)N1CCN(c2ncccn2)CC1 | -1.24 |
| C[C@]1(C(=O)NC2CC2)c2ccccc2C(=O)N(Cc2ccccc2)[C@H]1c1ccc(CO)cc1 | -4.5 |
| O=C(NCc1ccccc1)[C@@H]1c2ccccc2C(=O)N(Cc2ccccc2C(F)(F)F)[C@H]1c1ccc(CO)cc1 | -1.55 |
| COC(=O)c1nc2oc1CC[C@@H](CO)NC(=O)N(C)Cc1cnnn1C[C@H](Cc1ccccc1)NC2=O | -0.0922 |
| COc1ccc(CCNC(=O)[C@@H]2c3ccccc3C(=O)N(Cc3cc(C(F)(F)F)cc(C(F)(F)F)c3)[C@H]2c2ccc(CO)cc2)cc1 | -1.41 |
| COc1ccc([Si](C)(C)[C@@H]2[C@@H](CC(=O)N3Cc4ccccc4C[C@H]3CO)O[C@]3(C(=O)N(Cc4cccc(N5C(=O)c6cccc7cccc5c67)c4)c4ccccc43)[C@H]2C)cc1 | -4.1 |
| C=CCNC(=O)[C@H]1[C@@H]2C(=O)O[C@@H](c3ccccc3)[C@@H](c3ccccc3)N2[C@@H](c2ccc(O)cc2)[C@]12C(=O)Nc1ccc(C#CC3(O)CCCCCC3)cc12 | -1.11 |
| [N-]=[N+]=NCc1ccccc1C[C@]1(C(N)=O)N=C(c2ccc(OCCCO)cc2)O[C@H]1c1ccccc1 | -3.8 |
| COc1ccc([Si](C)(C)[C@@H]2[C@@H](CC(=O)N(CCO)Cc3ccccc3)O[C@]3(C(=O)N(c4ccccc4)c4ccccc43)[C@H]2C)cc1 | -7.08 |
| COCCOC(=O)N1C(=O)[C@@]2(c3cc(C#CC4=CCCCC4)ccc31)[C@H](C(=O)N1CCCCCCC1)[C@H]1C(=O)O[C@H](c3ccccc3)[C@H](c3ccccc3)N1[C@@H]2c1ccc(O)cc1 | -4.39 |
| [N-]=[N+]=NCc1ccccc1C[C@@]1(C(=O)N2CCOCC2)N=C(c2ccc(OCCCO)cc2)O[C@@H]1c1ccccc1 | -5.68 |

====

assay: anti-His antibody binders, primary screen, artefact control for SMM control protein annotation, biochemical, small-molecule microarray, 635 nm fluorescence (AID 1128); details: anti-His Alexa647 antibody binding, higher = more signal;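 further: score merges feature fluorescence with signal-to-noise for each printed compound spot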
Returns met if the recorded composite z-score is greater than or equal to 0.2, and not met otherwise.

| MOLECULE | CLASSIFICATION |
| --- | --- |
| [N-]=[N+]=Nc1ccccc1[C@@H]1OC(c2ccc(OCCCO)cc2)=N[C@]1(Cc1ccccc1)C(=O)NCC(O)CO (some centres not stated) | met |
| C=CCC(OC(C)=O)[C@@H]1[C@@H](N(Cc2cc3ccccc3o2)C(=O)c2ccc(-c3ccccc3)cc2)c2cc(OCCCO)ccc2N1C(=O)c1ccc2ccccc2c1 (some centres not stated) | not met |
| O=C1O[C@H](c2ccccc2)[C@H](c2ccccc2)N2[C@H]1[C@@H](C(=O)O)[C@]1(C(=O)Nc3ccc(C#CC4=CCCCC4)cc31)[C@H]2c1ccc(O)cc1 | met |
| COCCOC(=O)N1C(=O)[C@@]2(c3cc(C#CC4=CCCCC4)ccc31)[C@H](C(=O)N1CCCCCCC1)[C@H]1C(=O)O[C@H](c3ccccc3)[C@H](c3ccccc3)N1[C@@H]2c1ccc(O)cc1 | not met |
| C=CCOC(=O)[C@H]1[C@@H]2C(=O)O[C@@H](c3ccccc3)[C@@H](c3ccccc3)N2[C@@H](c2ccc(OCCOC(=O)[C@@H]3C[C@@H]4C(=O)N5CCC[C@H]5C(=O)N4[C@@H]3c3ccc(O)cc3)cc2)[C@]12C(=O)Nc1ccc(I)cc12 | met |
| C=C(C)c1cc2c(c(CCCCCC)n1)[Si](C(C)C)(C(C)C)OC2 | not met |
| CC(C)[Si](C#C[Si](C(C)C)(C(C)C)C(C)C)(O[C@H](C)c1cn([C@H](CO)Cc2ccccc2)nn1)C(C)C | not met |

====

Listed molecules paired with reported composite z-score
biological target: Fibroblast growth factor 2 (Homo sapiens) (UniProt P09038); assay: FGF2 binders on small-molecule microarrays, primary screen, biochemical, small-molecule microarray, 635/667 nm fluorescence (AID 1133); details: small-molecule microarray binding, FGF2, fluorescence 635/667; higher = more signal
Sequence (P09038 whole entry, looked up): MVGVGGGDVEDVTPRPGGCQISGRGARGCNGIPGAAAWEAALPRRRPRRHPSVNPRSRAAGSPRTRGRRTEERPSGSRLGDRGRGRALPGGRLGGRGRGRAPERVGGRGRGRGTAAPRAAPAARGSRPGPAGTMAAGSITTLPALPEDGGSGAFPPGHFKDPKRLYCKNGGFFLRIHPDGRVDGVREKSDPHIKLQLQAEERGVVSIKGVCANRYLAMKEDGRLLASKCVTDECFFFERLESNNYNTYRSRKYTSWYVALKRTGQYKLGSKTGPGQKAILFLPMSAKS

| MOLECULE | composite z-score |
| --- | --- |
| CN1C(=O)C2C=CC(C(O)c3ccc(F)cc3)N(Nc3ccccc3)C2C1=O (configuration not stated) | -0.319 |
| O=C1O[C@H](c2ccccc2)[C@H](c2ccccc2)N2[C@H]1[C@@H](C(=O)Nc1nc3ccccc3s1)[C@]1(C(=O)Nc3ccc(C#CC4(O)CCCCCC4)cc31)[C@H]2c1ccccc1OCCO | 0.903 |
| N#Cc1ccc(C(O)C2C=CC3C(=O)N(c4ccccc4)C(=O)C3N2Nc2ccccc2)cc1 (configuration not stated) | -0.265 |
| Cc1cc(C)c(C(O)C2C=CC3C(=O)N(c4ccccc4)C(=O)C3N2Nc2ccc(C(C)C)cc2)c(C)c1 (configuration not stated) | 0.375 |
| CO[C@H]1O[C@H](CO)[C@@H](OC(=O)Nc2ccccc2-c2ccccc2)[C@H](OC(=O)Nc2ccc3c(c2)OCO3)[C@H]1OC(=O)Nc1ccc2c(c1)OCO2 | 0.993 |
| C=CCC(OC(C)=O)[C@@H]1[C@@H](N(Cc2ccc(-c3cccc(C(F)(F)F)c3)o2)C(=O)c2ccc(-c3ccccc3)cc2)c2cc(OCCCO)ccc2N1C(=O)c1ccc2ccccc2n1 (some centres not stated) | -0.0036 |
| COC(=O)c1cn(C[C@@H](Cc2ccccc2)NC(=O)N[C@H](CO)CCc2oc(C(C)=O)c(C(=O)OC)c2C(=O)OC)nn1 | 0.86 |
| C=CCC(OC(C)=O)[C@@H]1[C@@H](N(Cc2cccc3ccccc23)C(=O)Cc2ccc(OC)cc2)c2cc(OCCCO)ccc2N1C(=O)c1ccc2ccccc2n1 (some centres not stated) | 0.0677 |
| CCCCCCc1nc(C2CC2)cc2c1[Si](C(C)C)(C(C)C)O[C@H]2c1ccccc1 | 0.248 |
| COCCOC(=O)N1C(=O)[C@@]2(c3cc(C#CCCO)ccc31)[C@H](C(=O)Nc1nc3ccccc3s1)[C@H]1C(=O)O[C@H](c3ccccc3)[C@H](c3ccccc3)N1[C@@H]2c1ccccc1OCCO | 0.69 |
| COC(=O)[C@H](Cc1ccccc1)N1CC(/C=C/C2CC2)=C[C@H]1[C@H](O)Cc1ccccc1 | 0.526 |
| COc1ccccc1CN1C(=O)c2ccccc2[C@](Cc2ccccc2I)(C(=O)NCC(F)(F)F)[C@@H]1c1ccc(CO)cc1 | 0.342 |
